Exercise: for every item that follows, state its recorded fold change of affinity.
Molecular target: Human CD137 ECD (human)
Sequence (chain, as listed by the source limits assumed): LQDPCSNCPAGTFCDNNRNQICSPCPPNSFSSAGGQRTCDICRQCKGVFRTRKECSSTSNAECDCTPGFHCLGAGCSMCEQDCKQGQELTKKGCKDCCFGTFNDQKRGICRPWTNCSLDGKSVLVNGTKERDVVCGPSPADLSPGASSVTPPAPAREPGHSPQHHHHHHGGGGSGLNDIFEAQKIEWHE
Assay: single mutant vs template dBBDu183H

Please state fold change of affinity for every binder in the list that follows.
1. H183/L072 VH D52aE (antibody, name in Kabat numbering, V domains shown) VH: QVQLVESGGGLVQPGRSLRLSCAASGFTFSNAWMHWVRQAPGKGLEWVAQIKEKGNAYAAYYAPSVKGRFTISRDDSKNSIYLQMNSLKTEDTAVYYCHYVHYASASTVLPAFGVDAWGQGTTVTVSS VL: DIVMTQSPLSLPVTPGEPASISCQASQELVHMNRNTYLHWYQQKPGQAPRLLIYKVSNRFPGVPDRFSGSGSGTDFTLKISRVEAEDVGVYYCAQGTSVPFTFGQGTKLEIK
2. H183/L072 VH D52aS (antibody, name in Kabat numbering, V domains shown) VH: QVQLVESGGGLVQPGRSLRLSCAASGFTFSNAWMHWVRQAPGKGLEWVAQIKSKGNAYAAYYAPSVKGRFTISRDDSKNSIYLQMNSLKTEDTAVYYCHYVHYASASTVLPAFGVDAWGQGTTVTVSS VL: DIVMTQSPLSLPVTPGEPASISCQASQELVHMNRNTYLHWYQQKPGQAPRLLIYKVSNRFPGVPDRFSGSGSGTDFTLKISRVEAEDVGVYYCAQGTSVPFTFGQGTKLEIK
3. H183/L072 VH H35A (antibody, name in Kabat numbering, V domains shown) VH: QVQLVESGGGLVQPGRSLRLSCAASGFTFSNAWMAWVRQAPGKGLEWVAQIKDKGNAYAAYYAPSVKGRFTISRDDSKNSIYLQMNSLKTEDTAVYYCHYVHYASASTVLPAFGVDAWGQGTTVTVSS VL: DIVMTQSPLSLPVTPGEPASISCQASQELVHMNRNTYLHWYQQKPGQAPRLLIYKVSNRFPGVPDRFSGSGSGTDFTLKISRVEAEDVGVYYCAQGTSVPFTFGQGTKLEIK

0 fold
0 fold
0 fold
